B1: tRNA (parent)
chain: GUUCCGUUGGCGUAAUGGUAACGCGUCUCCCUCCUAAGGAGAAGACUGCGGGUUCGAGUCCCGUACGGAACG

variants of: B1; experiment: yeast fitness relative to wild type (ratio to wild type); higher = fitter; tRNA-Arg(CCU), competitive growth, 37 C, YPD
Variants at the floor of the assay were thinned out.
METRIC: yeast fitness
Enter a number only.

Examples from the recorded data:
Briefly, yeast fitness measured for G6A A14C : 0.674

// sample C4G G48A , its yeast fitness was 0.876

Entry C11U G17C C62U A69U ; yeast fitness = 0.567

Next:
Given item C5U C30A U53A C62U , the value recorded as its yeast fitness is 0.659
